# credit: PubChem BioAssay AID1051

# assay info: TR-FRET detection interference compounds, primary screen, artefact control for PPARgamma SRC-1 recruitment agonists, biochemical, TR-FRET emission ratio (AID 1051)
# cond: TR-FRET detection artefact counter-screen, at 8 µM, hits give high values
About 340 (0.34%) of roughly 99,000 compounds were called active. This excerpt belongs to a sample that is enriched for actives.
test readout: TR-FRET ratio
Form rule: numeric answer, no unit written next to it.

TR-FRET ratio lookup needed for COc1ccc(C2N3CC(C)(C)CN23)cc1 (centres undefined) , thanks.
1740

====

# assay info: TR-FRET detection interference compounds, primary screen, artefact control for PPARgamma SRC-1 recruitment agonists, biochemical, TR-FRET emission ratio (AID 1051)
# cond: TR-FRET detection artefact counter-screen, at 8 µM, hits give high values
Out of some 99,000 compounds screened, about 340 (0.34%) were called active. Many of the other results were omitted from the sample, so actives are more common in it than they were.
Below, each of the molecules is paired with its reported TR-FRET ratio value.
Form rule: numeric answer, no unit written next to it.

>  <molecule>
OCC#CC[N+]1(CC#Cc2ccccc2)CCCC1

>  <quantitative readout>
1790

$$$$

TR-FRET ratio lookup needed for O=C1N=c2ccccc2=C/C1=C\c1c(O)[nH]c(=S)[nH]c1=O , thanks.
1870

TR-FRET ratio lookup needed for CCOP(=O)(OCC)C(NC(=O)c1ccc(C)cc1)C(Cl)(Cl)Cl (stereo not drawn) , thanks.
1720
